The reported measurements were obtained from patent WO2015116852A1.

# study-system: T1, Recombinant monkey monomeric IL-6R protein (Macaca fascicularis, extracellular domain) (Macaca fascicularis, UniProt P08887 21-330 (human entry))
# T1 construct: also called monkey IL-6R; monkey receptor
# T1 chain: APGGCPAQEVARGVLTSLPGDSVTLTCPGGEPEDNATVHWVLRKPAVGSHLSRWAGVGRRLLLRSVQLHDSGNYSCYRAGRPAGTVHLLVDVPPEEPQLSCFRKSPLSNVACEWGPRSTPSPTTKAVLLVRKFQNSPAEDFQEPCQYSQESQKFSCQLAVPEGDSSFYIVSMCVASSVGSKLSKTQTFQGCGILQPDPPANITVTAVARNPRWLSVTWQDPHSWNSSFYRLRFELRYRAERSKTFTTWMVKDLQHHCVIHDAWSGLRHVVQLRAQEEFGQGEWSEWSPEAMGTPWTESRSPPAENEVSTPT
# experimental-protocol: BIAcore, antibody captured on anti-mouse Fc, monomeric receptor injected
outcome-measure: binding result

* VQ8A9-6 (antibody, V domains shown) VH: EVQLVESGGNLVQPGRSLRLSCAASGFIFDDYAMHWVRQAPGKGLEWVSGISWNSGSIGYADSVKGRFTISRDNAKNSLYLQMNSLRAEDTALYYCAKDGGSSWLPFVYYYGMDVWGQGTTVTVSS VL: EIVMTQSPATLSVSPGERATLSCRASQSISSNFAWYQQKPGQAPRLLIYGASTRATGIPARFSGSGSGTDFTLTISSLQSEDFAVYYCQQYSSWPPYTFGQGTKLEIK | binds
* VV6A9-5 (antibody, V domains shown, also called W6A9-5) VH: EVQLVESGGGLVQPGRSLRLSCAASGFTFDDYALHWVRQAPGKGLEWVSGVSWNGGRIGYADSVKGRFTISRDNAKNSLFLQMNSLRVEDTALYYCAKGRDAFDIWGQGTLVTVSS VL: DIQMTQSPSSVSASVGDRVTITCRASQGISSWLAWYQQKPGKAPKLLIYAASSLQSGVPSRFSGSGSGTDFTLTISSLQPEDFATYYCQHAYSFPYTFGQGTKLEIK | binds
* VQ8F11-21 (antibody, V domains shown, also called mAb1; sarilumab) VH: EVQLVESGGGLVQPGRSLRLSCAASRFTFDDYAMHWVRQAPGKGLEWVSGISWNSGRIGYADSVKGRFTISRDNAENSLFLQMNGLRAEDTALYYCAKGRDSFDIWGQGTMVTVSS VL: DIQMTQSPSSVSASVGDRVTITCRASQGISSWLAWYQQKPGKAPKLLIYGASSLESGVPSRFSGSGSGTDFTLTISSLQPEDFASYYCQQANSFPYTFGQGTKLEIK | binds
